# methodDescription: qHTS Validation assay for Inhibitors of Plasmodium falciparum Dd2 growth in vitro; further: nearly all actives have a fitted effect of over 70% in size
# conditions: P. falciparum Dd2 in RBCs, SYBR Green growth, 72 h; series mostly up to 28.7 µM
# Text: Malaria, a parasitic disease spread to humans through the bite of a Plasmodium infected Anopheles mosquito, continues to be a global health burden affecting millions of people, with an estimated 228 million cases and 405,000 deaths in 2018. Concerns about safety and limitations of current antimalarial treatments strongly emphasize the need to develop new therapeutic options. […]
The campaign covered roughly 4,100 compounds. About 1,600 (39%) were called active. Another 25% or so got no clear call; they are omitted. The call rests on the fitted dose curve; in most records, active means well fitted inhibition curve with a large enough effect; inconclusive means small, poorly fitted or top-dose-only effect; inactive means no such curve, though single readings can be large or run the other way. This is one part of the list.
Permitted responses: true (1) = active, false (0) = inactive

Req: Outcome? `Cc1cccc(NC(=O)Cn2c(C)c(C#N)c3ccccc32)c1C`
Resp: true (1)

Req: Tell me the recorded outcome of this test for `FC(F)(F)c1cnc(N2CCCN(C(=S)Nc3ccccc3)CC2)c(Cl)c1` .
Resp: true (1)

Req: What did the test return for `O=C(Nc1ccncc1)c1cc(-c2cccc(Br)c2)nc2ccccc12` ?
Resp: true (1)

Req: // outcome(item) with item = `O=C(Nc1cccc(C(F)(F)F)c1)O[C@@H]1CO[C@H]2[C@@H]1OC[C@@H]2NS(=O)(=O)c1cccs1`
Resp: false (0)

Req: For this molecule, state the assay outcome: O=C(Cc1ccc(O)cc1)N1CC(CNc2ccccc2)C2(C1)CN(c1ccccc1)C2 (stereo unspecified)
Resp: true (1)

Req: What call does the record list for `Cc1ccc(C(=O)c2cc(C)sc2NC(=O)CN2CCN(C(=O)c3ccco3)CC2)cc1` ?
Resp: true (1)

Req: For this molecule, state the assay outcome: `CCCN(CCC)CCCNC(=S)Nc1ccc2nc(N3CCCC3)cc(C)c2c1`
Resp: false (0)

Req: Would you mind telling me which call this test gave `CCOc1ccc(CNC(=O)CN2N=C(c3ccccc3)CCC2=O)cc1OC` ?
Resp: false (0)

Req: What did the test return for O=C1c2ccccc2C2=Nc3ccccc3SC(c3ccccc3F)C12 (stereo unspecified) ?
Resp: true (1)

Req: Hi, sorry to bother you, what did the test record for `CC1=C[C@@H](CNCc2cccnc2)[C@H](C(C)C)C[C@H]1Cc1nnc(-c2ccc(N(C)C)cc2)o1` ?
Resp: true (1)

Req: So what was the verdict on `Cc1ccc(C(=O)Nc2cccc(NC(=O)c3ccc(C)c([N+](=O)[O-])c3)n2)cc1[N+](=O)[O-]` in this test?
Resp: true (1)

Req: Could you check what this test reported for O=[S+]([O-])(NCC1CN(Cc2ccc(O)cc2)CC12CN(c1ccccc1)C2)c1ccccc1 (stereo unspecified) ?
Resp: true (1)

Req: Lab log entry: `Cc1cc(N2CCN(C)CC2)nc2ccc(NC(=O)Nc3cccc(Cl)c3)cc12` — outcome as called in the assay?
Resp: true (1)

Req: What did this assay record as the result for `COc1cc(NC(=O)c2ccc(N)nc2)cc(C(=O)Nc2cccc(C(F)(F)F)c2)c1` ?
Resp: true (1)

Req: # fetch the recorded call for `COc1ccc(-c2cc(C(F)(F)F)nc(SCCC(=O)Nc3cc(C)ccc3O)n2)cc1` here
Resp: true (1)

Req: Each molecule tested received a call. Report the one for `Cc1ccc(NC(=O)CCSc2nc(-c3ccco3)cc(C(F)(F)F)n2)cc1F` .
Resp: false (0)

Req: Recorded test call requested for `Cc1cn2nc(C(=O)NCc3ccccn3)cc2c(=O)[nH]1`
Resp: false (0)

Req: Per the records of this test, what outcome belongs to `Cc1cccc(NC(=O)Cn2cnc(S(=O)(=O)N3CCCC3)c2)c1C` ?
Resp: false (0)

Req: Kindly provide the recorded test outcome for the following molecule: `CCN(CC)CCNC(=O)c1ccc(NC(=O)c2cc(-c3ccncc3)nc3ccccc23)cc1`
Resp: false (0)

Req: Assay outcome for NC(=O)c1ccccc1OCC(=O)N1CC(CNC(=O)Nc2ccccc2)C2(C1)CN(c1ccccc1)C2 (stereo unspecified) : what was it?
Resp: false (0)

Req: Each molecule tested received a call. Report the one for Oc1ccc(CN2CC(CNc3ccccc3)C3(C2)CN(c2ccccc2)C3)cc1 (stereo unspecified) .
Resp: true (1)

Req: Hi, do you know how `COc1ccc(-c2cc(C(=O)Nc3cc(OC)cc(C(=O)Nc4cccc(C(F)(F)F)c4)c3)[nH]n2)cc1` came out in this test?
Resp: true (1)

Req: Test call for this molecule, please: `O=C(O)CCC(=O)Nc1ccc(-n2ccc(C(F)(F)F)n2)cc1`
Resp: false (0)

Req: // outcome(item) with item = `COc1cc2c(Nc3ccc(Br)cc3F)ncnc2cc1OCC1CCN(C)CC1`
Resp: true (1)

Req: Write down the call the test reported for this molecule. Item: CCOc1ccc(Nc2nc(NCC3CCCO3)c3ccccc3n2)cc1 (stereo unspecified)
Resp: true (1)

Req: Dear colleague, could you share the recorded outcome for COc1ccccc1C(=O)N1CC(CNC(=O)C2CC2)C2(C1)CN(c1ccccc1)C2 (stereo unspecified) when you have a moment?
Resp: false (0)

Req: Would you mind telling me which call this test gave `Cc1cc(=O)n(CC(=O)Nc2ccc(C)c(F)c2)c(N2CCc3ccccc3C2)n1` ?
Resp: false (0)

Req: What call does the record list for `CCOc1cccc(CC(=O)Nc2ccc3nc(N4CCCCC4)cc(C)c3c2)c1OCC` ?
Resp: true (1)

Req: Query: recorded result category for `COc1ccc(CC(=O)NCc2ccccn2)cc1OC` in this test
Resp: true (1)

Req: Which outcome was entered for the molecule `CCOc1ccccc1NC(=O)Nc1ccc2nc(N3CCN(C)CC3)cc(C)c2c1` in this test?
Resp: true (1)

Req: Call for entry `CCc1cc(C(=O)OC)c(NC(=O)CN2CCN(C(=O)c3ccco3)CC2)s1` :
Resp: true (1)

Req: Please state the recorded outcome for this molecule: `Cc1ccc(C(=O)NCCc2noc(C3CC3)n2)cc1C`
Resp: false (0)

Req: Look up the recorded call for O=C(Cc1ccccc1)NCC1CN(Cc2cccc(Cl)c2)CC12CN(c1ccccc1)C2 (stereo unspecified) in this test.
Resp: false (0)

Req: Record request — test call for Oc1cccc(C(Nc2nccs2)c2ccc3cccnc3c2O)c1 (stereo unspecified)
Resp: true (1)

Req: What call does the record list for Oc1c(C(Nc2nccs2)c2ccc(C(F)(F)F)cc2)ccc2cccnc12 (stereo unspecified) ?
Resp: true (1)

Req: Per the assay record, what outcome was assigned to Cn1cc(C(=O)NCC2CN([S+](=O)([O-])c3ccccc3Cl)CC23CN(c2ccccc2)C3)cn1 (stereo unspecified) ?
Resp: false (0)

Req: Just curious, what result did `CC1=C[C@@H](CNCc2cccnc2)[C@H](C(C)C)C[C@H]1Cc1nnc(-c2ccc([N+](=O)[O-])cc2)o1` get here?
Resp: true (1)

Req: Answer briefly: the call reported for COCCN(CC1CCCO1)c1nc(CCN)nc2ccccc12 (stereo unspecified) in this assay.
Resp: false (0)

Req: Would you mind telling me which call this test gave `O=C1C(Nc2ccccc2)=C/C(=N/S(=O)(=O)c2cccs2)c2ccccc21` ?
Resp: true (1)

Req: Call for entry `O=C(COc1ccc2ccccc2c1)Nc1nccs1` :
Resp: false (0)

Req: Just curious, what result did CC(C)c1nc2oc3c(NCC4CCCO4)ncnc3c2c2c1CCC2 (stereo unspecified) get here?
Resp: false (0)
